Parameter IC50, tested on Prostaglandin G/H synthase 1 (Homo sapiens), listed per item.
Sequence (P23219 whole entry): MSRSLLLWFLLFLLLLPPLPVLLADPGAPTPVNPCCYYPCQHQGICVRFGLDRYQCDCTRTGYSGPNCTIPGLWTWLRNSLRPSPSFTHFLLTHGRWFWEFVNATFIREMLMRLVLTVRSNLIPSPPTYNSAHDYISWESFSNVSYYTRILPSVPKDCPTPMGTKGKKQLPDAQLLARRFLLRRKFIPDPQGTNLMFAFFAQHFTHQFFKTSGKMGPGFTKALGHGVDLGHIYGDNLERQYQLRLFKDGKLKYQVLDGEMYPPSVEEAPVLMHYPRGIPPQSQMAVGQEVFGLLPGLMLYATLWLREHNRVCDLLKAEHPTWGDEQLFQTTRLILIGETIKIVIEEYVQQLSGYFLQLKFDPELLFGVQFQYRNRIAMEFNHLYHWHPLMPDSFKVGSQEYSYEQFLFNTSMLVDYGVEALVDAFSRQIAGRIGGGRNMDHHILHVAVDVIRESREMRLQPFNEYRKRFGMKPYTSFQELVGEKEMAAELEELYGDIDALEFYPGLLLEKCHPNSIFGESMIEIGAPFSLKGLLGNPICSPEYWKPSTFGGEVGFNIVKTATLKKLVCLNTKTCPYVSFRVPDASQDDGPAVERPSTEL

Use these answered entries as a reference point.
compound=Cc1noc(-c2ccc(S(C)(=O)=O)cc2)c1-c1ccc(F)cc1 val="> 100 µM"
compound="CC1C(c2ccc(F)cc2)=C(c2ccc(S(C)(=O)=O)cc2)ON1C (stereo not drawn)" val="> 100 µM"

Please find the next compound below.
The compound CN1CC(c2ccccc2)=C(c2ccc(S(C)(=O)=O)cc2)O1 , when measured on Prostaglandin G/H synthase 1 (Homo sapiens), yielded IC50 of > 100 µM
